Test system: Saccharomyces cerevisiae
experiment description: protein stability index of tFT-peptide fusion (C-terminal peptide) (PSI (0-1 scale)); higher = more stable (slower turnover)
run parameters: genetic background: wild type; temperature: 30 C
I'd be grateful if you could share measured protein stability index for these entries.
Answers are plain numbers.

Examples with their reported protein stability index follow.
sequence	measured on	protein stability index
RKFQPPPGFKRK [SMB1 C-terminal 12 aa]	Saccharomyces cerevisiae	0.74
DPFLYSCSRVAF [YDL196W C-terminal 12 aa]	Saccharomyces cerevisiae	0.702

// each listed sequence needs a value for protein stability index
1. MSLLGLVPVDRM [MSR1 C-terminal 12 aa]
2. HAERERENMIYD [YGL108C C-terminal 12 aa]
3. IARLEKLLSGGV [LEA1 C-terminal 12 aa]

[reply]
0.688
0.695
0.686
